# Tested on: HOP-92 NSCLC
# Protocol Details: NCI-60 one-dose screen, 48 h (100 = growth as untreated, 0 = no growth, -100 = all killed)
# Run Parameters: 10 µM unless noted
About 83,000 compounds went through this panel and 20% of them were active in at least one assay; those are over-represented in the sample as a whole.
Measured growth by item
Parameter: growth (%)

• COc1ccc(Cn2cc3c(c2-c2ccccc2)CCCc2cnoc2-3)cc1[N+](=O)[O-] = 62.7
• CCNC(=O)Oc1ccc(/C(=C(/C)c2ccc(Cl)cc2)c2ccc(OCCN(C)C)cc2)cc1 = 45.1
• C=CCn1c(SCC(=O)Nc2ccc(OC)cc2)nnc1-c1ccc(Cl)cc1 = 68.8
• Cc1nn(-c2ccc(Br)cc2)c2nc(CCl)[nH]c(=O)c12 = 101
• CNC(=O)c1cc(Oc2ccc3nc(NC(=O)c4ccc(CN5CCN(C)CC5)c(C(F)(F)F)c4)sc3c2)ccn1 = 44.1
• O=c1c2c(O)cccc2oc2c3c(cc(O)c12)O[C@H]1OC=C[C@@H]31 = 88.7
• Cc1ccc(NC(=O)N[C@@H](Cc2cc(F)cc(F)c2)C(=O)NC2C(=O)N3CCC[C@H]3C(=O)N3CCCC[C@H]3C(=O)N[C@@H](C)C(=O)N3C[C@H](C)C[C@H]3C(=O)O[C@H]2C)c(F)c1 (stereo partly drawn) = 4.3
• Cc1cc(Cl)cc(NS(=O)(=O)c2ccc(-c3cnc(C4CC4)o3)cc2)c1 = 66.5

###

# Test system: SW-620 colon
# Protocol Details: NCI-60 one-dose screen, 48 h (100 = growth as untreated, 0 = no growth, -100 = all killed)
# Run Parameters: 10 µM unless noted
The panel holds about 83,000 compounds, 20% with a hit somewhere; the sample as a whole holds those more often.
Parameter: growth (%)

* COc1cc(-c2nc(SCc3ccc(C)cc3)[nH]c(=O)c2C#N)ccc1OCc1ccccc1 | 107
* O=C(Nc1ccc(-c2nc(-c3cccc(O)c3)c(-c3ccnc(Br)c3)[nH]2)cc1)c1ccccc1 | 10.5
* CC(C)N=C(N/C(N)=N/c1nc2ccccc2s1)NC(C)C | 33.3
* O=C1c2c(O)cc(O)cc2O[C@@H](c2ccc(O)cc2)[C@@H]1c1c(O)cc(O)c2c(=O)cc(-c3ccc(O)c(O)c3)oc12 | 107
* C#CCOc1ccc(/C=N/Nc2nc(-c3cc(Cl)ccc3Cl)cs2)cc1 | 93.9

###

Examples of compounds with documented growth follow.
# Tested on: SK-MEL-5 melanoma
# Protocol Details: NCI-60 one-dose screen, 48 h (100 = growth as untreated, 0 = no growth, -100 = all killed)
# Run Parameters: 10 µM unless noted
The panel holds about 83,000 compounds, 20% with a hit somewhere; the sample as a whole holds those more often.
Parameter: growth (%)

* COc1cc([C@H]2OC[C@H]3[C@@H]2CO[C@@H]3c2ccc(O)c(OC)c2)ccc1O | 57.3
* CN1CCN(c2ccc3c(C(N)=O)c(NC(=O)c4ccc(C(C)(C)C)cc4)sc3c2)CC1 | 89.7
* CCN(CC)c1ccc2cc(C(=O)NCCOCCOCCOCCn3cc(CCC(=O)Nc4ccc(C(=O)c5ccc(NC(=O)OC(C)(C)C)cc5)cc4)nn3)c(=O)oc2c1 | -17.2
* CC1(C)CC[C@]2(C(=O)N3CCCNCC3)CC[C@]3(C)C(=CC[C@@H]4[C@@]5(C)CCC(=O)C(C)(C)[C@@H]5CC[C@]43C)[C@H]2C1 | 102
* CCN(CC)CCCC(C)NCC(=O)NC(c1ccc2c(c1)OCO2)c1cc(Cl)c2cccnc2c1O (stereo not drawn) | -77.4
* Cc1ccc(/C=C/CC(=O)Nc2ccc(C(=O)Nc3ccc(F)cc3N)cc2)cn1 | 69.3
* COc1ccc(C2C(C#N)=C(N)Oc3c2sc2ccc(C)cc32)cc1 (stereo not drawn) | 2.75
* CS(=O)c1nccc(-c2c(-c3ccc(F)c(OCc4ccc(F)cc4)c3)nc3sccn23)n1 (stereo not drawn) | 100

###

# System: SF-268 CNS
# Protocol Details: NCI-60 one-dose screen, 48 h
# Run Parameters: 10 µM unless noted
This is part of a sample that, as a whole, favours compounds with a hit. Of some 83,000 tested, about 20% had one in any assay. The source made the active and inactive calls. How the source made its calls: active means growth percent below 10; inactive means the rest.
Labels: 1.0 (active), 0.0 (inactive)

* CCCCSc1nnc(-c2ccc(-c3ccc(Cl)cc3)nc2C)o1 | 0.0
* Cc1cn(-c2cc(NC(=O)c3cncc(C#Cc4cnc5ccc(O[C@@H]6CCOC6)nn45)c3)cc(C(F)(F)F)c2)cn1 | 1.0
* COc1cc2cc(Oc3ccc(NC(=O)c4cccc(C(F)(F)F)c4)cc3)c(C)nc2cc1OCCN(C)C | 0.0
* C=C1C(=O)O[C@@H]2C[C@@H](C)CCC(=O)[C@](C)(OC(C)=O)C[C@H](OC(=O)/C(C)=C\C)[C@@H]12 | 0.0
* O=C(O)c1ccc(-n2cc(CNc3ccc(Cl)cc3)c(-c3ccc(F)cc3)n2)cc1 | 0.0

###

# System: A549/ATCC NSCLC
# Protocol Details: NCI-60 one-dose screen, 48 h
# Run Parameters: 10 µM unless noted
About 83,000 compounds went through this panel and 20% of them were active in at least one assay; those are over-represented in the sample as a whole. Active and inactive are the calls of the source. Rule for the calls: active = growth percent below 10; inactive = the rest.
Outcome codes: label 1 (active), label 0 (inactive)

* CC1=CC(=O)CC(C)(C)[C@@]1(O)/C=C/C(C)=C\C(=O)O | label 1
* COc1ccc(Oc2ccc(C3CC(c4cc(OC)c(OC)c(OC)c4)=NN3C(C)=O)cc2)cc1 (stereo not drawn) | label 0
* COc1c([C@@H](CC(C)C)OC(C)=O)ccc2c1C(=O)OCc1cc(C)cc(O)c1O2 | label 0
* O=C1[C@H]2Cc3c([nH]c4ccccc34)[C@@H](c3c(Cl)cccc3Cl)N2C(=O)CN1C1CCN(Cc2ccccc2)CC1 | label 0
* CCN(CC)c1ccc2cc(C(=O)NCCOCCOCCOCCn3cc(CCC(=O)Nc4ccc(C(=O)c5ccc(NC(=O)OC(C)(C)C)cc5)cc4)nn3)c(=O)oc2c1 | label 0
* Cn1cc(-c2nn3cc(-c4cccnc4)nc3s2)c2cc(F)ccc21 | label 0
* O=C(Nc1cccc(-c2nc(-c3ccc(NC(=O)c4cccs4)cc3Cl)no2)c1)Nc1ccc(NC(=O)C2CC2)c(C(F)(F)F)c1 | label 1
* CC1(C)CC[C@]2(C(=O)O)CC[C@]3(C)C(=CCC4[C@@]5(C)C[C@@H](O)[C@@H]6OC(c7ccccc7O)OC[C@@]6(C)C5CC[C@]43C)C2C1 (stereo partly drawn) | label 0

###

# Tested on: NCI-H322M lung
# Protocol Details: NCI-60 one-dose screen, 48 h (100 = growth as untreated, 0 = no growth, -100 = all killed)
# Run Parameters: 10 µM unless noted
About 83,000 compounds went through this panel and 20% of them were active in at least one assay; those are over-represented in the sample as a whole.
Response field label: string, one of Criterion met (growth strictly below 30%) or Criterion not met.

• CNC(=O)c1cc(Oc2ccc3nc(NC(=O)c4ccc(CN5CCCN(C)CC5)c(C(F)(F)F)c4)sc3c2)ccn1 = Criterion not met
• O=C(NNc1nc2cc(F)c(F)cc2n2cccc12)c1ccncn1 = Criterion met
• CC[C@H](C)[C@H]1NC(=O)[C@@H]([C@H](O)C(C)C)NC(=O)[C@@H](C)N(C)C(=O)[C@H](C)N(C)C(=O)[C@H](CC(C)C)NC(=O)[C@H](CC(C)C)N(C)C(=O)[C@H](C)N(C)C1=O = Criterion met
• CCOC(=O)Nc1cccc(-n2cnc3cc(-c4ccc(O)cc4)ccc32)c1 = Criterion not met
• O=C(Nc1cc(Cl)cc(Cl)c1)Nc1ccc2oc(=O)ccc2c1 = Criterion met
• COc1cc(/C=N/Nc2ccnc3cc(Cl)ccc23)cc(OC)c1O = Criterion met
• c1cncc(-c2cn3nc(-c4c[nH]c5ccccc45)sc3n2)c1 = Criterion not met
• COc1ccc([C@@H]2[C@@H](O)C(=O)N2c2cc(OC)c(OC)c(OC)c2)cc1 = Criterion not met
• CCOC(=O)c1ccc(N/C=C/C(=O)c2ccccc2)cc1 = Criterion not met

###

# Test system: SNB-75 CNS
# Protocol Details: NCI-60 one-dose screen, 48 h
# Run Parameters: 10 µM unless noted
About 83,000 compounds went through this panel and 20% of them were active in at least one assay; those are over-represented in the sample as a whole. Active and inactive are the calls of the source. The calls were made as follows: active = growth percent below 10; inactive = the rest.
Outcomes: y (active), n (inactive)

* O=C1c2c(c3c4cccnc4[nH]c3c3ccc4ccccc4c23)C(=O)N1CCN1CCCCC1 | n
* O=C(CSc1nnc(-c2ccc(Cl)cc2)n1-c1ccccc1)Nc1ccc(F)cc1 | n
* CN1CCN(Cc2ccc(NC(=O)c3cncc(C#Cc4[nH]nc5ncncc45)c3)cc2C(F)(F)F)CC1 | n
* CC(=O)Nc1cccc(-n2cnc3cc(-c4ccc(O)cc4)ccc32)c1 | y
* CN1CCN(c2ccc3c(C(N)=O)c(NC(=O)c4ccc(C(C)(C)C)cc4)sc3c2)CC1 | n

Sourced from PubChem BioAssay (NCI)
